# tested-target: recombinant human cannabinoid receptor CB2 (Homo sapiens, UniProt P34972)
# Construct: (cDNA clone) CNR0200000
# Sequence (P34972 whole entry): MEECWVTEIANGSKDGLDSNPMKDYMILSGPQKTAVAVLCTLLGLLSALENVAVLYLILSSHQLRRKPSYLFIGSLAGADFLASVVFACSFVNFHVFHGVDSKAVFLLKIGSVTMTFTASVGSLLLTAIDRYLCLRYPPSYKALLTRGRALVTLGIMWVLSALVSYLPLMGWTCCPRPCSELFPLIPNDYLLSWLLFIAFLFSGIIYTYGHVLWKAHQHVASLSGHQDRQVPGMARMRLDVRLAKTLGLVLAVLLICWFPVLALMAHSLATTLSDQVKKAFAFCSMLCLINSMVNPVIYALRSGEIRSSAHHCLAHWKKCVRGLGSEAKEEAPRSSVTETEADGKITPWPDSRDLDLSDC
# experimental-protocol: Cannabinoid receptor radioligand binding assay, [3H]-CP 55,940 displacement, hCB2
pIC50: −log10 of the molar value.
observation-type: pIC50

                               given_smiles  assay_result
0  COc1ccc(C(=O)c2cc3cc(C)n(Cc4ccncc4)c3s2)cc1  6.00 to 7.00

Tell me the measured pIC50 of `CCOc1ccc(C(=O)c2cc3cc(C)n(CCN4CCOCC4)c3s2)c(F)c1` , please. 6.00 to 7.00

Please do the same for `COc1ccc(C(=O)c2cc3cc(C)n(CCNCC4CCOCC4)c3s2)cn1` as well. < 5.00

# repeat for `CCS(=O)(=O)n1c(C)cc2cc(C(=O)c3cccc(Cl)c3Cl)sc21` > 7.00

Next entry: `COc1ncccc1C(=O)c1cc2cc(C)n(CCN3CCOCC3)c2s1` 5.00 to 6.00

###

# tested-target: human CB2 (hCB2) (Homo sapiens, UniProt P34972)
# Construct: (cDNA clone) CNR0200000
# Sequence (P34972 whole entry): as above
# experimental-protocol: 35S GTPγS binding assay, hCB2 agonist
# Format: biochemical
pEC50: −log10 of the molar value.
observation-type: pEC50

Before answering, review these 8 worked examples.
>>> print(df.to_string())
                                   compound  observation_type  assay_result
0  COc1ccc(C(=O)c2cc3cc(C)n(CC4CCCCO4)c3s2)cn1 (stereo not drawn)             pEC50  6.00 to 7.00
1   C=Cn1c(C)cc2cc(C(=O)c3cccc(Cl)c3Cl)sc21             pEC50  6.00 to 7.00
2  COc1ccc(C(=O)c2cc3cc(C)n(CC4CCSCC4)c3s2)cn1             pEC50        > 7.00
3   Cc1cc2cc(C(=O)c3ccccc3N)sc2n1CCN1CCOCC1             pEC50        > 7.00
4  COc1ccc(C(=O)c2cc3cc(C)n(CCN4CCOC4=O)c3s2)cc1             pEC50  5.00 to 6.00
5  Cc1cc2cc(C(=O)c3ccccc3Cl)sc2n1CCN1CCOCC1             pEC50        > 7.00
6  COc1ccc(C(=O)c2cc3cc(C)n(CC4CCOC4)c3s2)cn1 (stereo not drawn)             pEC50        < 5.00
7  Cc1c(Cl)c2cc(C(=O)c3cccc(Cl)c3Cl)sc2n1CCN1CCOCC1             pEC50        > 7.00

For the compound `CCOc1ccc(C(=O)c2cc3cc(C)n(CCN4CCOCC4)c3s2)cc1` , what pEC50 is on record? > 7.00

###

# tested-target: human CB1 (hCB1) (Homo sapiens)
# Construct: (cDNA clone) CNR01L000
# Sequence (P21554 whole entry): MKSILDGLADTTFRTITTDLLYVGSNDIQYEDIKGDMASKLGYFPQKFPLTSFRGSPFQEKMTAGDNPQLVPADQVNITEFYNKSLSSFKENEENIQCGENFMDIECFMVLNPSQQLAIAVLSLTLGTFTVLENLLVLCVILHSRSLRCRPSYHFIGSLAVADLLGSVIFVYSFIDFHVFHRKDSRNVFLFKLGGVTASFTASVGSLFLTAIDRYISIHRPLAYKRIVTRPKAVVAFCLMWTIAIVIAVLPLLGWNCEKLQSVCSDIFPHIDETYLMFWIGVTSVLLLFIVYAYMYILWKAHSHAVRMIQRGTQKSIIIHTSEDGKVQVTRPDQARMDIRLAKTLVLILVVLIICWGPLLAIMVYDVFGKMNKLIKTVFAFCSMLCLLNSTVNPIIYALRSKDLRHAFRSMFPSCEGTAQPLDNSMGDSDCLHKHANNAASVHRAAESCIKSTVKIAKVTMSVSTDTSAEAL
# experimental-protocol: 35S GTPγS binding assay, hCB1 agonist
# Format: biochemical
# measurement-setup: GTPγS agonist, HEK-293 membranes; read-out: hCB1 EC50 (GTPyS ag)
# Procedure: cDNA expression clones for human CB1 (hCB1, Genbank Accession No. AY225225) and human CB2 (hCB2, Genbank Accession No. AY242132) expressed in vector pcDNA3.1+ were purchased from UMR cDNA Resource Center, Rolla, Mo. (Clone ID CNR01L000 for hCB1; CNR0200000 for hCB2). […] Membranes were isolated from transfected cells as follows. […] Protein concentration of membrane suspensions were measured by Bradford Protein Assay using bovine serum albumin as the standard (BioRad catalog #500-0006). […]
observation-type: EC50

                                   compound  assay_result
0  COc1ccc(C(=O)c2cc3cc(C)n(CC4COCCO4)c3s2)cn1 (centres unmarked)       > 10 µM
1  COc1ccc(C(=O)c2cc3cc(C)n(CC(OC)OC)c3s2)cn1       > 10 µM
2  COc1ccc(C(=O)c2cc3cc(C)n(CCCNC(=O)C(F)(F)F)c3s2)cc1      < 0.1 µM
3  COc1ccc(C(=O)c2cc3cc(C)n(CC(=O)O)c3s2)c(F)c1       > 10 µM
4  COc1ccc(C(=O)c2cc3cc(C)n(CCN4CCC(OC)CC4)c3s2)cn1       > 10 µM
5  COc1ccc(C(=O)c2cc3cc(C)n(C[C@@H]4COCCN4C)c3s2)cn1       > 10 µM

If you can, please state the reported EC50 value of COc1ccc(C(=O)c2cc3cc(C)n(CCN4CCCC4COCc4ccccc4)c3s2)cn1 (centres unmarked) . > 10 µM

// query: `Cc1ccc(C(=O)c2cc3cc(C)n(CCN4CCOCC4)c3s2)c(Cl)c1` 1 to 10 µM

###

# tested-target: human CB2 (hCB2) (Homo sapiens)
# Construct: (cDNA clone) CNR0200000
# experimental-protocol: 35S GTPγS binding assay, hCB2 agonist
# Assay type: biochemical
# Procedure: cDNA expression clones for human CB1 (hCB1, Genbank Accession No. AY225225) and human CB2 (hCB2, Genbank Accession No. AY242132) expressed in vector pcDNA3.1+ were purchased from UMR cDNA Resource Center, Rolla, Mo. (Clone ID CNR01L000 for hCB1; CNR0200000 for hCB2). Membranes were isolated from transfected cells as follows. […] Protein concentration of membrane suspensions were measured by Bradford Protein Assay using bovine serum albumin as the standard (BioRad catalog #500-0006). […]
Each record here notes measured EC50.

Consider the following illustrative entries.
>>> df
                                   compound  assay_result
0  COc1ccc(C(=O)c2cc3cc(C)n(S(=O)(=O)N(C)C)c3s2)cn1 [Compound 113]      < 0.1 µM
1  Cc1cc2cc(C(=O)c3cccc(Cl)c3Cl)sc2n1CCN1CCCC1 [Compound 28]      < 0.1 µM
2  Cc1cc2cc(C(=O)c3cccc(Cl)n3)sc2n1CCN1CCOCC1 [Compound 123]   0.1 to 1 µM
3  COc1ccc(C(=O)c2cc3cc(C)n(CCN4CCSCC4)c3s2)cc1 [Compound 110]      < 0.1 µM
4  CNc1ccc(C(=O)c2cc3cc(C)n(CCN4CCOCC4)c3s2)cc1 [Compound 134]   0.1 to 1 µM
5  Cc1cc2cc(C(=O)c3cccc(Cl)c3Cl)sc2n1S(=O)(=O)N(C)C [Compound 41]      < 0.1 µM
6  COc1ccc(C(=O)c2cc3cc(C)n(CCN4CCCC4)c3s2)c(Cl)c1 [Compound 93]      < 0.1 µM
7  COc1ccc(C(=O)c2cc3cc(C)n(CCN4CCCC4)c3s2)c(F)c1 [Compound 92]      < 0.1 µM
8  COc1ccc(C(=O)c2cc3cc(C)n(CCN4CCOCC4)c3s2)c(F)c1 [Compound 68]      < 0.1 µM
9  CCc1ccc(C(=O)c2cc3cc(C)n(CCN4CCOCC4)c3s2)cc1 [Compound 122]      < 0.1 µM

Hi! What's the reported EC50 for COc1ccc(C(=O)c2cc3cc(C)n(CC4CCOCC4)c3s2)cn1 [Compound 144] on human CB2 (hCB2) (Homo sapiens)? < 0.1 µM

Could you do the same for COc1ccc(C(=O)c2cc3cc(C)n(CCN4CCCC4COCc4ccccc4)c3s2)cn1 (centres unmarked) [Compound 178] , please? > 10 µM

Again, but for Cc1cc2cc(C(=O)c3cc(Cl)ccc3Cl)sc2n1CCN1CCOCC1 [Compound 35] < 0.1 µM

Would you kindly repeat that for COc1ccc(C(=O)c2cc3cc(C)n(CCN4CCCCC4)c3s2)c(O)c1 [Compound 99] ? < 0.1 µM

How about Cc1cc2cc(C(=O)c3cccc(Cl)c3Cl)sc2n1CCN1CCCCC1 [Compound 23] ? < 0.1 µM

###

# tested-target: human CB2 receptors (Homo sapiens)
# Construct: (cDNA clone) CNR0200000
# Sequence (P34972 whole entry): as the sequence (P34972 whole entry) above
# experimental-protocol: cAMP assay in HEK-293 cells, hCB2 agonist
# Type: cell-based
observation-type: EC50

>>> df
                                   compound      assay_result
0  COc1ccc(C(=O)c2cc3cc(C)n(CCCNC(C)(C)C)c3s2)cc1  1000 to 10000 nM

Lookup: EC50 / human CB2 receptors (Homo sapiens) / `COCCN(C)CCn1c(C)cc2cc(C(=O)c3ccc(OC)nc3)sc21` < 100 nM

Do the same for `CCOc1ccc(C(=O)c2cc3cc(C)n(CCN4CCOCC4)c3s2)cn1` please < 100 nM

Same again, this time with `COc1ccc(C(=O)c2cc3cc(C)n(CCCNS(C)(=O)=O)c3s2)c(C)c1` < 100 nM

Do the same for `Cc1cc2cc(C(=O)c3cc(Cl)ccc3Cl)sc2n1CCN1CCOCC1` please < 100 nM

Next up: COc1ccc(C(=O)c2cc3cc(C)n(CC4CCCCO4)c3s2)cn1 (stereo not drawn) < 100 nM

Next compound: `COc1ccc(C(=O)c2cc3cc(C)n(CC4CCC(F)(F)CC4)c3s2)cn1` < 100 nM

Also `Cc1cc2cc(C(=O)c3ccccc3Cl)sc2n1CCN1CCOCC1` , if possible. < 100 nM

Consider next the compound `COc1ccc(C(=O)c2cc3cc(C)n(CCN4CCOCC4)c3s2)c(C)c1` in the same way. < 100 nM

Moving on to `C=Cn1c(C)cc2cc(C(=O)c3cccc(Cl)c3Cl)sc21` 100 to 1000 nM

Also `CCOC(=O)CCn1c(C)cc2cc(C(=O)c3ccc(OC)cc3)sc21` ? 100 to 1000 nM

Also need `COc1ccc(C(=O)c2cc3cc(C)n(CCC(C)(C)O)c3s2)cc1` , thanks. 100 to 1000 nM

Another: `CCCn1c(C)cc2cc(C(=O)c3cccc(Cl)c3Cl)sc21` < 100 nM

Now try `COc1ccc(C(=O)c2cc3cc(C)n(CCN4CCCC4)c3s2)c(F)c1` . < 100 nM

Request: `CCS(=O)(=O)NCCCn1c(C)cc2cc(C(=O)c3ccc(OC)cc3)sc21` 100 to 1000 nM

Follow-up item: `Cc1cc2cc(C(=O)c3ccccn3)sc2n1CCN1CCOCC1` 100 to 1000 nM

Query `COc1ccc(C(=O)c2cc3cc(C)n(Cc4ccncc4)c3s2)cc1` next 100 to 1000 nM
